# Target Under Test: human orexin-1 receptor (Homo sapiens (Human))
# Method Description: In vitro assay: intracellular calcium measurements (FLIPR), antagonistic activity
# Type: cell-based
# Experimental Context: CHO cells, 3 nM orexin-A, compound incubation 120 min; marked values are geometric means of n = 2-6; read-out: IC50 OX1
Assay Endpoint: pIC50
Please keep in mind that pIC50 is minus log10 of the molar concentration; only the number is needed.

Sample records with pIC50:
Compound	pIC50
CCOc1cccc(F)c1[C@@H]1C[C@H](F)C(=O)N1Cc1ccc(OC(F)(F)F)c(F)c1 (racemic) [Example 434]	6.18
CCOc1cccc(F)c1C1CC(C)C(=O)N1Cc1csc(-c2ccc(C)cc2)n1 (centres unmarked) [Example 383]	6.63
COc1cccc(OC)c1C1CC(C)C(=O)N1Cc1cccc(-c2ccccn2)c1 (centres unmarked) [Example 140]	8.00
COc1cccc(F)c1C1CC(C)C(=O)N1Cc1cccc(-c2nc(Cl)cs2)c1 (centres unmarked) [Example 365]	6.94
O=C1[C@H](O)C[C@@H](c2cccc3c2OCCO3)N1Cc1ccc(OC(F)(F)F)cc1 (racemic) [Example 295]	5.40
COc1ccc2c(c1C1CCCC(=O)N1Cc1cccc(-c3ncc(C)s3)c1)OCCO2 (centres unmarked) [Example 444]	8.15

Item: COc1ccc2c(c1C1CCCC(=O)N1Cc1cccc(-c3csc(C)n3)c1)OCO2 (centres unmarked) [Example 448] | pIC50: 7.77

Item: COc1ccnc(OC)c1C1CCCC(=O)N1Cc1cccc(-c2csc(C)n2)c1 (centres unmarked) [Example 54] | pIC50: 7.82

---

# Target Under Test: human orexin-1 receptor (Homo sapiens (Human))
# Method Description: In vitro assay: intracellular calcium measurements (FLIPR), antagonistic activity
# Assay type: cell-based
# Experimental Context: CHO cells, 3 nM orexin-A, compound incubation 120 min; marked values are geometric means of n = 2-6; read-out: IC50 OX1
# Description: In Vitro Assay: Intracellular Calcium Measurements: […] Fluorescence is measured for each well at 1 second intervals, and the height of each fluorescence peak is compared to the height of the fluorescence peak induced by 3 nM orexin-A with vehicle in place of antagonist. […] The calculated IC50 values may fluctuate depending on the daily cellular assay performance. […]
Assay Endpoint: pIC50
Please keep in mind that pIC50 is minus log10 of the molar concentration; only the number is needed.

Sample records with pIC50:
Compound	Reading
COc1cccc(OC)c1C1CCCC(=O)N1Cc1cccc(-c2ccncc2)c1 (centres unmarked)	7.54
CCOc1cc(F)cc(F)c1[C@@H]1C[C@@H](O)C(=O)N1Cc1ccc(OC(F)(F)F)cc1 (racemic)	5.83
COc1cccc(OC)c1C1CC(C)C(=O)N1Cc1ccc(OCC(F)F)cc1 (centres unmarked)	6.23

Item: CCOc1cccc(F)c1C1CC(C)C(=O)N1Cc1cccc(-c2nc(Cl)cs2)c1 (centres unmarked) | pIC50: 7.19

Item: COc1cccc(OC)c1C1CCCC(=O)N1Cc1cc(-c2ccccn2)ccc1F (centres unmarked) | pIC50: 7.12

Item: COc1cncc(OC)c1C1CCCC(=O)N1Cc1cccc(-c2ccccn2)c1 (centres unmarked) | pIC50: 6.87

Item: COc1cccc(OC)c1C1CCC(=O)N1Cc1cccc(-n2cccn2)c1 (centres unmarked) | pIC50: 6.78

Item: CCOc1cc(F)cc(F)c1[C@@H]1C[C@H](F)C(=O)N1Cc1ccc(OC(F)(F)F)cc1 (racemic) | pIC50: 6.04

Item: COc1cccc(OC)c1C1CC(C)C(=O)N1Cc1ccc(OC(F)F)c(Cl)c1 (centres unmarked) | pIC50: 6.79

Item: COc1cccc(OC)c1C1CC(C)C(=O)N1Cc1cccc(-c2noc(C)n2)c1 (centres unmarked) | pIC50: 7.57

Item: COc1cccc(OC)c1C1CC(C)C(=O)N1Cc1ccc(OC(C)C)cc1 (centres unmarked) | pIC50: 6.58

Item: COc1cccc(OC)c1C1CCCC(=O)N1Cc1cccc(-n2nccn2)c1 (centres unmarked) | pIC50: 7.85

---

# Target Under Test: human orexin-1 receptor (Homo sapiens (Human))
# Method Description: In vitro assay: intracellular calcium measurements (FLIPR), antagonistic activity
# Assay type: cell-based
# Experimental Context: CHO cells, 3 nM orexin-A, compound incubation time of 10 min; marked values are geometric means of n = 2-6; read-out: IC50 OX1
Assay Endpoint: IC50 (nM)
Respond with the bare value in nM.

Sample records with IC50:
Compound	IC50 / nM
COc1cccc(OC)c1[C@@H]1C[C@H](OC)C(=O)N1Cc1ccc(OC(F)(F)F)cc1 (racemic) [Example 254]	191
COc1cccc(OC)c1C1CC(C)C(=O)N1Cc1ccc(OC(F)F)nc1 (stereo not drawn) [Example 199]	351
COc1cccc(OC)c1C1CN(C)CC(=O)N1Cc1ccc(OC(F)(F)F)cc1 (stereo not drawn) [Example 268]	1270

Let's switch to this compound now.
Hey, human orexin-1 receptor (Homo sapiens (Human)) data for COc1cccc(OC)c1C1COCC(=O)N1Cc1ccc(OC(F)(F)F)cc1 (stereo not drawn) [Example 266] : IC50 came out at 412

---

# Target Under Test: human orexin-1 receptor (Homo sapiens (Human), UniProt O43613)
# Sequence (O43613 whole entry): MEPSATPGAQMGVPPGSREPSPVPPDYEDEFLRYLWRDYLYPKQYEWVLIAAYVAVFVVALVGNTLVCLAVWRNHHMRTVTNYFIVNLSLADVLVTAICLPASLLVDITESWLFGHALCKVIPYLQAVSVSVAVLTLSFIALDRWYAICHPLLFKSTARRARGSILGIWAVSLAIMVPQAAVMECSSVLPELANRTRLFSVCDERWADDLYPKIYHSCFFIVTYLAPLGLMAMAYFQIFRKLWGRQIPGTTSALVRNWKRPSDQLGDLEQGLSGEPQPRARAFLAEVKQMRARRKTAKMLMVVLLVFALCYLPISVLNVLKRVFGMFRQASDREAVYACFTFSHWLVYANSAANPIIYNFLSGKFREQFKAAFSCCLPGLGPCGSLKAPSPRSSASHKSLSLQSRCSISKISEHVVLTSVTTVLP
# Method Description: In vitro assay: intracellular calcium measurements (FLIPR), antagonistic activity
# Assay type: cell-based
# Experimental Context: CHO cells, 3 nM orexin-A, compound incubation 120 min; marked values are geometric means of n = 2-6; read-out: IC50 OX1
Assay Endpoint: pIC50
Please keep in mind that pIC50 is minus log10 of the molar concentration; only the number is needed.

Sample records with pIC50:
Compound	Assay Endpoint	Reading
CCOc1cc(F)ccc1[C@@H]1C[C@H](F)C(=O)N1Cc1ccc(OC(F)(F)F)cc1 (racemic) [Example 344]	pIC50	5.74
COc1cccc(OC)c1C1CCCC(=O)N1Cc1ccc2oc3ccccc3c2c1 (stereo not shown) [Example 30]	pIC50	8.70

Item: COc1cccc(OC)c1C1CCCC(=O)N1Cc1ccnc(Br)c1 (stereo not shown) [Example 36] | pIC50: 5.80

Item: COc1cccc(OC)c1C1CCCCC(=O)N1Cc1ccc2nc(C)sc2c1 (stereo not shown) [Example 105] | pIC50: 6.81

---

# Target Under Test: human orexin-2 receptor (Homo sapiens (Human), UniProt O43614)
# Sequence (O43614 whole entry): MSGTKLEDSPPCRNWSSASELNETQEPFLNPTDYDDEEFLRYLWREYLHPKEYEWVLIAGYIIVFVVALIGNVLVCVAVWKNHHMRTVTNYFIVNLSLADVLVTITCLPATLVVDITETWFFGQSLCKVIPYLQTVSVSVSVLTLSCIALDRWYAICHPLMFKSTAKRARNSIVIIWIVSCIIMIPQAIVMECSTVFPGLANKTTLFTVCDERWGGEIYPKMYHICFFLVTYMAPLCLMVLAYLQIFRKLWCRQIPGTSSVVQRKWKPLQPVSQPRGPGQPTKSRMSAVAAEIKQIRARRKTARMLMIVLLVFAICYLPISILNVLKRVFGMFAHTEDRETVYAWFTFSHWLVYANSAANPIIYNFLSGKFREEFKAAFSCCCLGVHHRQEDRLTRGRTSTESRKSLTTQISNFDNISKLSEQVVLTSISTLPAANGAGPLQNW
# Method Description: In vitro assay: intracellular calcium measurements (FLIPR), antagonistic activity
# Assay type: cell-based
# Experimental Context: CHO cells, 3 nM orexin-A, compound incubation 120 min; marked values are geometric means of n = 2-6; read-out: IC50 OX2
Assay Endpoint: IC50

Sample records with IC50:
Compound	Target Under Test	IC50
COc1cccc(F)c1C1CC(C)C(=O)N1Cc1ccnc(-n2cccn2)c1 (centres unmarked)	human orexin-2 receptor (Homo sapiens (Human), UniProt O43614)	87 nM
COc1cccc(OC)c1C1CC(C)C(=O)N1Cc1ccc2sc(C)nc2c1 (centres unmarked)	human orexin-2 receptor (Homo sapiens (Human), UniProt O43614)	121 nM
CC1CC(c2ccccc2-c2ccccc2)N(Cc2cccc(-c3ccccc3)c2)C1=O (centres unmarked)	human orexin-2 receptor (Homo sapiens (Human), UniProt O43614)	596 nM

Item: COc1cccc(OC)c1C1CCCCC(=O)N1Cc1ccc2oc3ccccc3c2c1 (centres unmarked) | IC50: 3 nM

Item: COc1cccc(C)c1[C@@H]1C[C@@H](O)C(=O)N1Cc1ccc(OC(F)(F)F)cc1 (racemic) | IC50: 887 nM

---

// values below are reported pIC50
# Target Under Test: human orexin-2 receptor (Homo sapiens (Human), UniProt O43614)
# Method Description: In vitro assay: intracellular calcium measurements (FLIPR), antagonistic activity
# Type: cell-based
# Experimental Context: CHO cells, 3 nM orexin-A, compound incubation 120 min; marked values are geometric means of n = 2-6; read-out: IC50 OX2
Please keep in mind that pIC50 is minus log10 of the molar concentration; only the number is needed.

Sample records with pIC50:
Molecule	pIC50
COc1ccnc(OC)c1C1CCCC(=O)N1Cc1ccc(F)c(-c2ccccn2)c1 (stereo not shown)	6.87
COc1cccc(OC)c1C1CCCC(=O)N1Cc1ccnc(N2CCCC2)c1 (stereo not shown)	5.69
O=C1CCCCC(c2ccccc2-c2ccncc2)N1Cc1cccc(-c2nccs2)c1 (stereo not shown)	7.82

Let's switch to this molecule now.
Item: COc1ccc(Cl)c(OC)c1[C@@H]1C[C@H](F)C(=O)N1Cc1ccc(OC(F)(F)F)cc1 (racemic) | pIC50: 5.99

---

# Target Under Test: UniProt:O43614
# Method Description: In vitro assay: intracellular calcium measurements (FLIPR), antagonistic activity
# Assay type: cell-based
# Experimental Context: CHO cells, 3 nM orexin-A, compound incubation 120 min; marked values are geometric means of n = 2-6; read-out: IC50 OX2
Values of IC50 strictly less than 200 nM map to yes (1), and values of at least 200 nM map to no (0).

These recorded examples may help you get a feel for the data.
Molecule	Label Class
COc1cccc(OC)c1C1CC(C)C(=O)N1Cc1cccc(-c2cncs2)c1 (stereo not drawn)	yes (1)
COc1cccc(OC)c1C1CCCCC(=O)N1Cc1ccccc1-c1ccccc1 (stereo not drawn)	no (0)
O=C1CCCCC(c2ccccc2-c2ccccc2)N1Cc1cccc(-c2nccs2)c1 (stereo not drawn)	yes (1)
COc1cccc(OC)c1C1CCCC(=O)N1Cc1cc(-c2ccccc2)on1 (stereo not drawn)	no (0)
COc1cccc(OC)c1C1CCCC(=O)N1Cc1nc2ccccc2s1 (stereo not drawn)	no (0)
COc1cccc(OC)c1C1CC(C)C(=O)N1Cc1ccc(OC(F)F)cc1 (stereo not drawn)	no (0)
CCOc1cccc(F)c1C1CC(C)C(=O)N1Cc1cccc(OC(F)(F)F)c1 (stereo not drawn)	yes (1)
COc1cccc(OC)c1C1CCCC(=O)N1Cc1cccc(-c2ccncc2)c1 (stereo not drawn)	yes (1)

Pending molecule:
# TODO verify IC50 < 200 nM strictly for this molecule: COc1cccc(OC)c1C1CC(C)C(=O)N1Cc1cccc(-c2ccccn2)c1F (stereo not drawn)
no (0)
